Listed below: melting point values for each entry.
quantity-name: melting point

compound: COc1cc(C(=O)N2CCN(C(=O)/C=C/c3cccc(-c4cc(OC)c(OC)c(OC)c4)c3)CC2)cc(OC)c1OC
result: 149 to 151 °C
//
compound: CCCOc1c(OC)cc(NC(C)CCCN2C(=O)c3ccccc3C2=O)c2ncccc12 (stereo not drawn)
result: 140 to 143 °C
//
compound: CCCC(=O)Nc1cc(C(Cl)(Cl)Cl)ccn1
result: 88 to 90 °C

----------
// melting point lookup, one value per entry
quantity-name: melting point

compound: CP(C)(=O)CNc1cc(Oc2ccc(C(F)(F)F)cn2)ccc1[N+](=O)[O-]
result: 158 to 160 °C
//
compound: COCCOc1ccc(/C=C/C(=O)NS(=O)(=O)c2ccc(C(F)(F)F)cc2)c(Oc2ncc(C(F)(F)F)cc2Cl)c1
result: 186 °C
//
compound: Cc1nc2c(cc1C(=O)NC(=N)N)CCCCC2Cl (stereo not drawn)
result: 153 to 156 °C
